# XC50 annotations
System: Plasmodium falciparum
Assay: GSK_TCMDC: Inhibition of Plasmodium falciparum 3D7 in whole erythrocytes, using parasite LDH activity as an index of growth.
Type: functional, organism-based
Conditions: Plasmodium falciparum, 3D7

- Compound: "N#Cc1cccc(C(=O)Nc2ccc(-c3cccc(CN4CCC(O)CC4)c3)cc2)c1"
  XC50 (nM): 995
- Compound: "NC1=Nc2ccc(Cl)cc2C1(O)c1ccccc1 (stereo unspecified)"
  XC50 (nM): 876
- Compound: "COc1cc(CCNC(=N)/C=C/c2ccc(Cl)cc2)ccc1Cl"
  XC50 (nM): 241
- Compound: "O=C1Nc2cccc3c2C1(CCCCN1CCC(c2c(-c4ccccc4)[nH]c4ccccc24)CC1)CCC3 (stereo unspecified)"
  XC50 (nM): 1200
- Compound: "CC(C)n1ncc2c(C(=O)Nc3ccc(C#N)c(Cl)c3)cc(C3CC3)nc21"
  XC50 (nM): 962
- Compound: "N=c1n(Cc2ccccc2)c2ccccc2n1CC(O)c1ccc(Cl)cc1 (stereo unspecified)"
  XC50 (nM): 879
